- System: KM12
- Experiment: NCI tumour cell line growth inhibition, 48 h
Active and inactive are the calls of the source. No stated cut-off is given here; in the data, active = GI50 up to about 1.1 µM and inactive = higher.
Hi there, use one of these labels in your reply, thanks! active, inactive

// query What outcome does the record of this test show for `COc1ccc2c(c1)/C(=C\c1c(C)nc3sc(C)cn13)C(=O)N2` ?
// result active

// query Further, for `O=[N+]([O-])C=C(c1ccc(Cl)cc1)c1ccc(Cl)cc1` ?
// result inactive

// query Then `C[C@H]1C2Cc3cc(N)ccc3[C@@]1(C)CCN2CCc1ccccc1` ?
// result inactive

// query Another compound: `C[C@]12O[C@@]3(C)O[C@@]3(C)[C@]3(C)O[C@]3(C)[C@@]1(C)O2`
// result inactive

// query Consider next the compound O=C(O)C(Cc1ccccc1)NCc1c(O)ccc2c(-c3ccccc3)cc(=O)oc12 (stereo not given) in the same way.
// result inactive
